target.desc: T1, human TMEM106B (human, UniProt Q9NUM4 2-274)
T1 construct: Full-length cDNA transiently transfected into HEK293 cells; also called huTMEM106B
experiment.summary: flow cytometry, HEK293 cells transiently transfected with human TMEM106B
Reported fold-change in binding over parental HEK293 cells values for the following binders.
Numeric answer only, unit fold assumed.

Example results:
binder: TM-88 (antibody, V domains shown, Purified from mouse hybridoma) VH: EAQLQQSGPVLVKPGASVKMSCKTSGYTFTDYYINWVKQSHGKSLEWIGVINPYSGATYYTQKFKGKATLTVDKSSSTAYMELNSQTSEDSAVYYCARGGYDYGHWYFDVWGTGTTVTVSS VL: ETTVTQSPASLSMAIGEKVTIRCITSSDIDDHMNWYRQKPGEPPEFLISEGNALRPGVPSRFSSSGYGTDFIFTIENILSEDVADYYCLQSDNLPLTFGAGTKLELK
measurement.units: fold
quantitative.result: 7.81
//
binder: TM-86 (antibody, V domains shown, Purified from mouse hybridoma) VH: EVQLQQSGPVLVKPGASVKMSCKASGYTFTDYYIHWVKQSHGRSLEWIGVISPYNDNTNYNQKFKGKATLTVDKSSSTAYMELNSLTSEDSAVYYCVRTYYSNYFDYWGQGTTLTVSS VL: DIVMTQSPSSLSVSAGEKVTMSCKSSQSLLNSGNQKNYLAWHQQRPGQPPKLLIYGASTRESGVPDRFTGSGSGTEFTLTISSVQAEDLAVYYCQNDHSYPLTFGAGTKLELK
measurement.units: fold
quantitative.result: 9.73
//
binder: TM-83 (antibody, V domains shown, Purified from mouse hybridoma) VH: QVQLQQPGTELVKPGALVKLSCKASGYTFTTYWIHWVKQRPGQGLEWIGNINPSNGNTKNNERFKTKATLTVDKSSSTAYMQLSSLTSEDSAVYYCVRGDYYGTSYPFWGQGTLVTVSS VL: DVVMTQTPLSLPVSLGDQASISCRSSQSLVHSNGITYLHWYLQKPGQSPKLLIYKVSNRFSGVPDRFSGSGSGTDFTLKISRVEAEDLGVYFCSQSTHVPYTFGGGTKLEIK
measurement.units: fold
quantitative.result: 0.42

Could you now look at the following binder, please?
// lookup fold-change in binding over parental HEK293 cells for TM-65 (antibody, V domains shown, Purified from mouse hybridoma) VH: QVQLQQPGAEFVKPGASVRLSCKTSGYTFTSSWMHWVKQRPGQGLEWIGEINPKNGGTNYNEKFKTKATLTVDKSSNTAYMQLSSLTSEDSAVYYCTIPTWFTYWGQGTLVTVSS VL: DIQMNQSPSSLSASLGDTITITCRASQNINIWLSWYQQKPGNVPKLLIYKASNLHTGVPSRFSGSGSGTGFTLTISSLQPEDIATYYCLQGQSYPYTFGGGTKLGIK
4.14

These entries and their values trace back to patent US20240174746A1.
